Record form. Attribute: Cmax. Fill in for each entry.
PROCEDURE_DETAILS: Pharmacokinetics in rats after oral administration
Format: in vivo, SD rats
DETAILS: male, SD, rat, 20 mg/kg, plasma
Give bare numbers, in ng/mL.

molecule="C=CC(=O)Nc1cc(Nc2nccc(-n3c(=O)n(C)c4cc(F)ccc43)n2)c(OC)cc1N(C)CCN(C)C [Compound 50]" endpoint_unit=ng/mL numeric_value=173

Quick batch: Cmax for everything below.
1. C=CC(=O)Nc1cc(Nc2nccc(-n3c(=O)n(C(C)C)c4cc(F)ccc43)n2)c(OC)cc1N(C)CCN(C)C [Compound 91]
2. C=CC(=O)Nc1cc(Nc2nccc(-n3c(=O)n(CC=C(C)C)c4ccccc43)n2)c(OC)cc1N(C)CCN(C)C [Compound 62]
3. C=CC(=O)Nc1cc(Nc2nccc(-n3ccc4nc(OC)ccc43)n2)c(OC)cc1N(C)CCN(C)C [Compound 20]
4. C=CC(=O)Nc1cc(Nc2nccc(-n3ccc4nc(Cl)ccc43)n2)c(OC)cc1N(C)CCN(C)C [Compound 124]

stdout:
292
84
350
327

###

PROCEDURE_DETAILS: Pharmacokinetic experiments of tumor model (plasma and tumor tissue, H1975 xenograft mice)
Format: in vivo, Balb/C nude mice
DETAILS: Balb/C nude, mouse, oral 30 mg/kg, tumor tissue
MEASURED_ATTRIBUTE: Tmax (h)
Answers are plain numbers, in h.

stdin: Name the recorded Tmax for C=CC(=O)Nc1cc(Nc2nccc(-n3c(=O)n(C(C)C)c4cc(F)ccc43)n2)c(OC)cc1N(C)CCN(C)C .
stdout: 4

###

ASSAYED_TARGET: EGFR T790M/L858R (Homo sapiens, UniProt P00533, L858R/T790M)
Sequence (P00533 25-1210 T790M/L858R): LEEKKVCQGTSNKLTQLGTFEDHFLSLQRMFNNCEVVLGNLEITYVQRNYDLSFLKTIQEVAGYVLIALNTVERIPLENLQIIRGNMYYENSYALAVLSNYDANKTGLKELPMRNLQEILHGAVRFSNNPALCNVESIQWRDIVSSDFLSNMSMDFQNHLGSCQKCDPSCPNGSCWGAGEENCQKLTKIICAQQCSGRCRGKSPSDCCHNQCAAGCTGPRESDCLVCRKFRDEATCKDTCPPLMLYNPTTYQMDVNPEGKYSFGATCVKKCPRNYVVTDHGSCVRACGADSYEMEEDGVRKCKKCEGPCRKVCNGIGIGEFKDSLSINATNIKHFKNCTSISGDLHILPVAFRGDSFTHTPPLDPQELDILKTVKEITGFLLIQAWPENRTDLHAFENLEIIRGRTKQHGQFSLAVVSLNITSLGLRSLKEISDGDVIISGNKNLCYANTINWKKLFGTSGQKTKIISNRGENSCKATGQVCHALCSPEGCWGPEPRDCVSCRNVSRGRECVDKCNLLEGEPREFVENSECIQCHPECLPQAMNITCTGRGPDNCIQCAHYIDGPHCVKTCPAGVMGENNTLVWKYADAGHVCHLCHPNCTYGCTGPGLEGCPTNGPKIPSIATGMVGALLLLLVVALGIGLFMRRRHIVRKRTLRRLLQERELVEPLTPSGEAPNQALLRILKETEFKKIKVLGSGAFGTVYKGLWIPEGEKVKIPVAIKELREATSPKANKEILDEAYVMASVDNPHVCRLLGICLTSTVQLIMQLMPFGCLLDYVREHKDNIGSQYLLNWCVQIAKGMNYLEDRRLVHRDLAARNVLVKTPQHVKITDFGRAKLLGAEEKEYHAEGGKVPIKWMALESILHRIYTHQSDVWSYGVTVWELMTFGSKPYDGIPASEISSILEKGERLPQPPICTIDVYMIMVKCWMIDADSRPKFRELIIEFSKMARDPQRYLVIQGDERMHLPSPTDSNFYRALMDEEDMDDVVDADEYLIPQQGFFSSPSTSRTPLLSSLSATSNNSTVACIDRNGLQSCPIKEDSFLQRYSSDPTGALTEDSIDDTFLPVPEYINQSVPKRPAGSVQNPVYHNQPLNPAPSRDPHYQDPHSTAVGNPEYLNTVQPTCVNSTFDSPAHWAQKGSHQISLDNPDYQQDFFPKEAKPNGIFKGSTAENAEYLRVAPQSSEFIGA
PROCEDURE_DETAILS: Mutant EGFR T790M/L858R activity inhibition assay (Caliper mobility shift)
DETAILS: read-out: enzyme activity inhibition (IC50) EGFR T790M/L858R
MEASURED_ATTRIBUTE: IC50

Example results:
molecule="COc1cc(N(C)CCN(C)C)c(NC(=O)/C=C/CN2CCCCC2)cc1Nc1nccc(-n2ccc3ccccc32)n1 [Compound 70]" result="1 to 10 nM"
molecule="C=CC(=O)Nc1cc(Nc2nccc(-n3ccc4cc(C(N)=O)ccc43)n2)c(OC)cc1N(C)CCN(C)C [Compound 41]" result="< 1 nM"
molecule="C=CC(=O)Nc1cc(Nc2nccc(-n3ccc4ccccc43)n2)c(OC)cc1N1CC(N(C)C)C1 [Compound 77]" result="1 to 10 nM"

Continue with the next molecule.
stdin: Name the recorded IC50 for C=CC(=O)Nc1cc(Nc2nccc(-n3ccc4cc(O)ccc43)n2)c(OC)cc1N(C)CCN(C)C [Compound 36] .
stdout: < 1 nM

###

Test system: LOVO
PROCEDURE_DETAILS: Inhibition assay on tumor cell proliferation (CellTiter-Glo), LOVO
Format: cell-based, Human
DETAILS: Homo sapiens; LOVO (wild-type EGFR), 72 hours, 10% bovine serum
Description: By using a CellTiter-Glo luminescence cell viability test kit (Promega, # G7572), the content of adenosine triphosphate (ATP) was determined to assess the cell viability. […] The assay procedure is as follows. The cells in a cell culture plate were digested with a pancreatic enzyme, re-suspended in a DPBS culture medium, and had the cell density counted by Scepter automated cytometer (Millipore # PHCC00000). […]
MEASURED_ATTRIBUTE: IC50

molecule="C=CC(=O)Nc1cc(Nc2nccc(-n3ccc4cc(OC)ccc43)n2)c(OC)cc1N(C)CCN(C)C [Compound 27]" measured_attribute=IC50 result="> 1000 nM"
molecule="C=CC(=O)Nc1cc(Nc2ncc(N(C)C)c(-n3ccc4ccccc43)n2)c(OC)cc1N(C)CCN(C)C [Compound 10]" measured_attribute=IC50 result="> 1000 nM"

Quick batch: IC50 for everything below.
1. C=CC(=O)Nc1cc(Nc2nccc(-n3ccc4cc(CO)ccc43)n2)c(OC)cc1N(C)CCN(C)C [Compound 39]
2. C=CC(=O)Nc1cc(Nc2nccc(-n3ccc4cc(O)ccc43)n2)c(OC)cc1N(C)CCN(C)C [Compound 36]
3. C=CC(=O)Nc1cc(Nc2nccc(-n3ccc4cc(C(N)=O)ccc43)n2)c(OC)cc1N(C)CCN(C)C [Compound 41]
4. C=CC(=O)Nc1cc(Nc2nccc(-n3ccc4ccccc43)n2)c(OC)cc1N1CC[C@H](N(C)C)C1 [Compound 78]

stdout:
1: > 1000 nM; 2: > 1000 nM; 3: > 1000 nM; 4: > 1000 nM

stdin: Name the recorded IC50 for C=CC(=O)Nc1cc(Nc2ncc(C)c(-n3ccc4ccccc43)n2)c(OC)cc1N(C)CCN(C)C [Compound 8] .
stdout: > 1000 nM

###

Record form. Attribute: melting point. Fill in for each entry.

smiles_string=C=CC(=O)Nc1cc(Nc2nccc(-n3ccc4c(F)cccc43)n2)c(OC)cc1N(C)CCN(C)C result="165.5 to 166.5 °C"
smiles_string=C=CC(=O)Nc1cc(Nc2nccc(-n3ccc4cc(O)ccc43)n2)c(OC)cc1N(C)CCN(C)C result="218 to 219 °C"
smiles_string=C=CC(=O)Nc1cc(Nc2nccc(-n3cc(Cl)c4ccccc43)n2)c(OC)cc1N(C)CCN(C)C result="142 to 144 °C"
smiles_string=C=CC(=O)Nc1cc(Nc2nccc(-n3c(=O)n(C4CC4)c4cc(Cl)ccc43)n2)c(OC)cc1N(C)CCN(C)C result="124 to 126 °C"
smiles_string=C=CC(=O)Nc1cc(Nc2nccc(-n3c(=O)n(C)c4cc(F)ccc43)n2)c(OC)cc1N(C)CCN(C)C result="208 to 210 °C"

Quick batch: melting point for everything below.
1. C=CC(=O)Nc1cc(Nc2ncc(N(C)C)c(-n3ccc4ccccc43)n2)c(OC)cc1N(C)CCN(C)C
2. C=CC(=O)Nc1cc(Nc2nccc(-n3c(=O)n(CC=C(C)C)c4ccccc43)n2)c(OC)cc1N(C)CCN(C)C

stdout:
1. 154 to 155 °C
2. 187 to 188 °C

###

PROCEDURE_DETAILS: Pharmacokinetic experiments of tumor model (plasma and tumor tissue, H1975 xenograft mice)
Type: in vivo, Balb/C nude mice
DETAILS: Balb/C nude, mouse, oral 30 mg/kg, plasma, read-out: AUC0-24
MEASURED_ATTRIBUTE: AUC(0-t) (ng·h/mL)
Numbers only, in ng·h/mL.

stdin: Name the recorded AUC(0-t) for C=CC(=O)Nc1cc(Nc2nccc(-n3c(=O)n(C(C)C)c4cc(F)ccc43)n2)c(OC)cc1N(C)CCN(C)C [Compound 91] .
stdout: 5100

###

Test system: LOVO
PROCEDURE_DETAILS: Inhibition assay on tumor cell proliferation (CellTiter-Glo), LOVO
Assay type: cell-based, Human
DETAILS: Homo sapiens; LOVO (wild-type EGFR), 72 hours, 10% bovine serum
pIC50: −log10 of the molar value.
MEASURED_ATTRIBUTE: pIC50

Example results:
smiles_string=C=CC(=O)Nc1cc(Nc2nccc(-n3ccc4cc(F)ccc43)n2)c(OC)cc1N(C)CCN(C)C result="< 6.00"
smiles_string=C=CC(=O)Nc1cc(Nc2nccc(-n3ccc4ccccc43)n2)c(OC)cc1N(C)CCN1CCCC1 result="< 6.00"
smiles_string=C=CC(=O)Nc1cc(Nc2nccc(-n3ccc4ccccc43)n2)c(OC)cc1N1CC(N(C)C)C1 result="< 6.00"
smiles_string=C=CC(=O)Nc1cc(Nc2nccc(-n3ccc4cc(OCCOC)ccc43)n2)c(OC)cc1N(C)CCN(C)C result="< 6.00"
smiles_string=C=CC(=O)Nc1cc(Nc2nccc(-n3ccc4ccc(F)cc43)n2)c(OC)cc1N(C)CCN(C)C result="< 6.00"

Quick batch: pIC50 for everything below.
1. CC#CC(=O)Nc1cc(Nc2nccc(-n3ccc4ccccc43)n2)c(OC)cc1N(C)CCN(C)C
2. C=CC(=O)Nc1cc(Nc2nccc(-n3cc(Cl)c4ccccc43)n2)c(OC)cc1N(C)CCN(C)C

stdout:
1. < 6.00
2. < 6.00

###

Record form. Attribute: IC50. Fill in for each entry.
ASSAYED_TARGET: EGFR T790M/L858R (Homo sapiens, UniProt P00533, L858R/T790M)
Construct: purchased Invitrogen PR8911A
PROCEDURE_DETAILS: Mutant EGFR T790M/L858R activity inhibition assay (Caliper mobility shift)
Assay type: biochemical
DETAILS: read-out: enzyme activity inhibition (IC50) EGFR T790M/L858R

Quick batch: IC50 for everything below.
1. C=CC(=O)Nc1cc(Nc2nccc(-n3ccc4ccccc43)n2)c(OC)cc1N(C)CCN1CCCC1 [Compound 80]
2. C=CC(=O)Nc1cc(Nc2ncc(N(C)C)c(-n3c(=O)n(C(C)C)c4ccccc43)n2)c(OC)cc1N(C)CCN(C)C [Compound 135]
3. C=CC(=O)Nc1cc(Nc2nccc(-n3ccc4cc(F)ccc43)n2)c(OC)cc1N(C)CCN(C)C [Compound 28]
4. CC#CC(=O)Nc1cc(Nc2nccc(-n3ccc4ccccc43)n2)c(OC)cc1N(C)CCN(C)C [Compound 73]

stdout:
1: 1 to 10 nM; 2: 1 to 10 nM; 3: < 1 nM; 4: 1 to 10 nM

The reported measurements were obtained from patent US11267802B2.
